All values here come from the METLIN SMRT retention time set (Domingo-Almenara et al. 2019).

Test: gradient 5% acetonitrile 3 min, to 50% in 2 min, to 85% in 15 min, held 3 min, 100 µL/min
Conditions: column: Zorbax Extend-C18 2.1 x 50 mm; eluents: water / acetonitrile, 0.1% formic acid
Hi there, I'd appreciate the recorded RP-LC retention time for every entry that follows.
Numbers only, in s.

The examples below pair each entry with its known result.
- Compound: "COc1ccccc1-c1noc(C2CCCN2C(=O)C2CCC2)n1 (stereo not drawn)"
  Experimental Value: 831
- Compound: "CC(C)S(=O)(=O)c1cc2c(cc1NC(=O)c1ccccc1Br)n(C)c(=O)n2C"
  Experimental Value: 822
- Compound: "Cc1ccc2nc(NC(=O)CSc3nnc(C4COc5ccccc5O4)o3)sc2c1 (stereo not drawn)"
  Experimental Value: 866
- Compound: "CC(C)n1cnc(S(=O)(=O)N2CCC(C(=O)N3CCc4ccccc4C3)CC2)c1"
  Experimental Value: 765

Could you tell me RP-LC retention time for each of these compounds? They are listed below.
1. Cc1oc(C(C)C)nc1C(=O)NCc1ccncc1
2. CCC(C(=O)Nc1ccc(C)cc1)n1cnc2nc3c(cc2c1=O)CCCC3 (stereo not drawn)
3. O=c1c2cc(-c3ccc4c(c3)OCO4)nn2ccn1Cc1cccc(F)c1
4. Cc1ccc2c(=O)c3c([nH]c2c1C)CCN(CC(=O)Nc1ccc(F)cc1)C3
5. CCN(CC)CCNC(=O)c1ccc2nc(C(C)C)oc2c1
6. C=CCn1c(SCC#CCO)nc2ccccc2c1=O
7. Cc1nc2c(sc3nc(-c4ccccc4)ccc32)c(=O)n1CC(=O)Nc1ccccc1F

1. 590
2. 756
3. 981
4. 626
5. 605
6. 744
7. 982

Could you tell me RP-LC retention time for each of these compounds? They are listed below.
1. Cc1nnc(-c2cc(S(=O)(=O)NC3CCCCCCC3)c(C)n2C)o1
2. CC(C)NC(=O)N1CCc2c(c(-c3nc(Cc4ccccc4)no3)nn2C)C1

1. 897
2. 748

----------
Assay: gradient 5% acetonitrile 3 min, to 50% in 2 min, to 85% in 15 min, held 3 min, 100 µL/min
Details: column: Zorbax Extend-C18 2.1 x 50 mm; eluents: water / acetonitrile, 0.1% formic acid
Class field: derived from RP-LC retention time; ranges bin 1 = under 700 s, bin 2 = from 700 s up to 900 s, bin 3 = 900 s and over

Example entries begin here.
- Compound: "COc1ccc(OC)c(S(=O)(=O)N2CCCC(C(=O)NCc3ccncc3)C2)c1 (centres undefined)"
  Classification: "bin 1"
- Compound: "CCN1CCN(c2cc(C(=O)O)c3cc(NS(=O)(=O)c4cccc(F)c4)ccc3n2)CC1"
  Classification: "bin 1"
- Compound: "COc1ccccc1-c1noc(-c2nnn3c2COC(c2ccc(F)cc2)C3)n1 (centres undefined)"
  Classification: "bin 3"

Class for "Cc1ccc(C)c(-c2cc3c4nn(CC(=O)N(C)c5ccc(F)cc5)c(=O)n4ccn3n2)c1" ?
bin 3

Class for "COc1ccc(OC)c(Nc2c(-c3ccccc3)nc3cnccn23)c1" ?
bin 2

Class for CCOC(=O)C1CCC(CNC(=O)N2CCCn3nc(-c4cccnc4)cc3C2)CC1 (centres undefined) ?
bin 1

Class for "CCn1cc(CCN2CCC(C(=O)N3CCOCC3)CC2)c2cccnc21" ?
bin 1

Class for "Cc1nn(CC(=O)NC2CCCCCC2)c(=O)c2c(-n3cccc3)n(-c3cccc(F)c3)nc12" ?
bin 3

Class for Cc1nc(-c2cccnc2)nc2c1CCC(=O)N2CC1CCCO1 (centres undefined) ?
bin 1

Class for COc1ccc(-c2nc(C3CC(=O)N(Cc4ccccc4)C3)no2)cc1 (centres undefined) ?
bin 3

Class for COc1ccc2nc(C(=O)NC(C)c3ccccc3)cn2n1 (centres undefined) ?
bin 2

Class for "CCc1nc(N)n(CC(=O)NCc2ccc(C)cc2)c(=O)c1C" ?
bin 1

Class for "COC(=O)c1ccc2c(=O)n(-c3ccc(F)c(Cl)c3)c(N3CCOCC3)nc2c1" ?
bin 3

Class for COCCNC(=O)CN1c2ccccc2NC2=C(C(=O)CC(C)(C)C2)C1c1ccc(OC)cc1 (centres undefined) ?
bin 2

Class for "O=c1[nH]c2ccc(S(=O)(=O)N3CCN(c4nc5ccccc5[nH]4)CC3)cc2o1" ?
bin 1

Class for "COc1ccc(-c2nc(Cn3cnc4nc5c(cc4c3=O)CCCC5)c(C)o2)c(OC)c1" ?
bin 2

Class for COC(=O)c1cc(S(=O)(=O)N2CCCC2C(=O)NCc2ccccc2C)cn1C (centres undefined) ?
bin 2

Class for "COc1cc(OC)cc(-c2nc(-c3nnn(-c4ccccc4)c3C)no2)c1" ?
bin 3

Class for CCn1ccc(C(=O)N2CCC(c3noc(-c4ccncc4)n3)C2)n1 (centres undefined) ?
bin 1

----------
Hi there, I'd appreciate the recorded RP-LC retention time for every entry that follows.
Experiment: gradient 5% acetonitrile 3 min, to 50% in 2 min, to 85% in 15 min, held 3 min, 100 µL/min
Conditions: column: Zorbax Extend-C18 2.1 x 50 mm; eluents: water / acetonitrile, 0.1% formic acid
Answers are plain numbers, in s.

- Compound: "O=C(NC1CCCCCC1)C1CCCN(c2ccc(=O)n(-c3cccc(Cl)c3)n2)C1 (stereo not drawn)"
  Units Of Measure: "s"
  RP-LC retention time: 966
- Compound: "CCOC(=O)c1ccc(NC(=O)C2CCN(C(=O)C3Sc4ccccc4NC3=O)CC2)cc1 (stereo not drawn)"
  Units Of Measure: "s"
  RP-LC retention time: 805
- Compound: "CC(C)N1C(=O)C(C)(C(=O)Nc2ccc(F)cc2F)Oc2cccnc21 (stereo not drawn)"
  Units Of Measure: "s"
  RP-LC retention time: 989
- Compound: "O=C(NCc1ccc2c(c1)OCO2)c1ccc2c(c1)CC(=O)N2Cc1ccc(F)cc1"
  Units Of Measure: "s"
  RP-LC retention time: 847
- Compound: "Cc1ccccc1CN1CC(=O)N(c2ccccc2)[C@@H]2CS(=O)(=O)C[C@@H]21"
  Units Of Measure: "s"
  RP-LC retention time: 800
- Compound: "COc1ccc2c(c1)c(CN1CCC(C(=O)NCCN3CCN(C)CC3)CC1)cn2C"
  Units Of Measure: "s"
  RP-LC retention time: 564

Could you tell me RP-LC retention time for each of these compounds? They are listed below.
1. O=C(Cn1c(=O)n(-c2ccc(F)cc2)c2ncccc21)N1CCCCC1
2. CN1CCN(c2cc(C(=O)O)c3cc(NS(=O)(=O)c4ccc(Cl)c(Cl)c4)ccc3n2)CC1

[754, 644]

----------
Test: gradient 5% acetonitrile 3 min, to 50% in 2 min, to 85% in 15 min, held 3 min, 100 µL/min
Settings: column: Zorbax Extend-C18 2.1 x 50 mm; eluents: water / acetonitrile, 0.1% formic acid
Readout: RP-LC retention time
Returns: string containing the numeric result and its unit.

The examples below pair each entry with its known result.
- Compound: "c1cc(CN2CC(Oc3ccc(-c4noc(C5CC5)n4)cc3)C2)cs1"
  RP-LC retention time: "700 s"
- Compound: "CC(=O)Nc1cc2c(cc1S(=O)(=O)c1ccc(C)cc1)n(C)c(=O)n2C"
  RP-LC retention time: "683 s"
- Compound: "O=C(Nc1ccccc1C(F)(F)F)N(CCc1cccs1)C1CC1"
  RP-LC retention time: "1100 s"

Could you tell me RP-LC retention time for each of these compounds? They are listed below.
1. Cc1cc(NC(=O)C2CCCN(c3ccc(=O)n(-c4cccc(F)c4)n3)C2)ccc1Br (centres undefined)
2. Cn1nc(-c2nnc(-c3ccc(F)cc3)o2)c2c1CCN(S(=O)(=O)c1cccc3cccnc13)C2
3. CC(C)Cn1ccc2c(cc(C(=O)NCCCN3CCOCC3)n2C)c1=O
4. COc1cc(N2C=C(C(=O)N3CCCC3)S(=O)(=O)c3ccccc32)cc(OC)c1OC
5. COc1ccc(CNC(=O)CSc2cc(N3CCN(c4ccccc4OC)CC3)ncn2)cc1
6. COc1ccc(-n2cc(C(=O)OCc3ccco3)c3ccccc3c2=O)cc1
7. Cc1cccc(NC(=O)N2CCC(c3nc(C(=O)N(C)C)c(C)o3)CC2)c1

["1050 s", "882 s", "594 s", "753 s", "1090 s", "970 s", "689 s"]

Could you tell me RP-LC retention time for each of these compounds? They are listed below.
1. CCC(=O)N1CCc2cc(N3CC(C(=O)Nc4cccc(C)c4)CC3=O)ccc21 (centres undefined)
2. CCc1ccc(C2=C(C)C(N3CCCN(C(=O)NCC(C)C)CC3)=NS2(=O)=O)cc1
3. CCOC(=O)C1CCCN(C(=O)CCC(=O)N2CCCn3nc(-c4cn(C)c5ccccc45)cc32)C1 (centres undefined)
4. CC(NC(=O)c1cc2ccccc2[nH]1)C(=O)N1CCN(c2ccccn2)CC1 (centres undefined)
5. COc1ccc(CNC(=O)C2(C)CCN(C(=O)Nc3ccc(F)cc3)CC2)cc1
6. O=C1NCCCn2cc(S(=O)(=O)Nc3ccccc3F)cc21
7. CCOC(=O)c1[nH]c(C)c(CCC(=O)NCCN2CCOCC2)c1C

1. 693 s
2. 842 s
3. 803 s
4. 612 s
5. 761 s
6. 633 s
7. 597 s
